# target: JAK2 (Homo sapiens (Human), UniProt O60674)
# Sequence (O60674 849-1124): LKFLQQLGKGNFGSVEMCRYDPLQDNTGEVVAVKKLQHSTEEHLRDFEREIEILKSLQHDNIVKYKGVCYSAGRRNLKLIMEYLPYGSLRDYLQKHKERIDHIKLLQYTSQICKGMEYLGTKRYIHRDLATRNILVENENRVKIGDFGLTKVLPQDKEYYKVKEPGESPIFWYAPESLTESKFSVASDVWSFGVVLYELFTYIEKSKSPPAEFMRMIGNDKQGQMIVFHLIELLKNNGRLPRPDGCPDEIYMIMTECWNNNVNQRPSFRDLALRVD
# runDescription: Jak biochemical HTRF assay, JAK2
# studyConditions: HTRF biochemical assay, recombinant GST-tagged catalytic domain; read-out: JAK2 IC50
quantity: IC50 (nM)

molecule="C[C@H](NCC(F)(F)F)c1ccc(Nc2nn([C@H]3CCCC[C@@H]3C#N)c3cc[nH]c(=O)c23)cc1 [Example 3-73]" measurementunits=nM experimentalresult=0.45
molecule="N#C[C@H]1CCCC[C@@H]1n1nc(Nc2ccc(C3(N)CCC3)cc2)c2c(=O)[nH]ccc21 [Example 12-2]" measurementunits=nM experimentalresult=0.32
molecule="CC(C)N1Cc2cc(Nc3nn([C@H]4CCCC[C@@H]4C#N)c4cc[nH]c(=O)c34)ccc2S1(=O)=O [Example 3-79]" measurementunits=nM experimentalresult=0.48
molecule="CCN1Cc2cc(Nc3nn([C@H]4CCCC[C@@H]4C#N)c4cc[nH]c(=O)c34)ccc2S1(=O)=O [Example 3-60]" measurementunits=nM experimentalresult=0.41
molecule="CC(C)(C)S(=O)(=O)c1ccc(Nc2nn([C@H]3CC(F)(F)C[C@@H]3C#N)c3cc[nH]c(=O)c23)cc1 (single isomer, unassigned) [Example 22-4]" measurementunits=nM experimentalresult=0.35
molecule="N#C[C@H]1CCCC[C@@H]1n1nc(Nc2ccc3c(c2)CN(CC(F)(F)F)S3(=O)=O)c2c(=O)[nH]ccc21 [Example 3-58]" measurementunits=nM experimentalresult=0.58
molecule="N#C[C@H]1CCCC[C@@H]1n1nc(Nc2ccc3c(c2)CNC3)c2c(=O)[nH]ccc21 [Example 12-1]" measurementunits=nM experimentalresult=0.86
molecule="CC(C)(C)OC(=O)CC(C)(C)N1Cc2cc(Nc3nn([C@H]4CCCC[C@@H]4C#N)c4cc[nH]c(=O)c34)ccc2S1(=O)=O [Example 3-155]" measurementunits=nM experimentalresult=0.71
molecule="N#C[C@H]1CCCC[C@@H]1n1nc(Nc2ccc3c(c2)CC(C(=O)O)C3)c2c(=O)[nH]ccc21 (some centres unmarked) [Example 13-1]" measurementunits=nM experimentalresult=3.4
molecule="N#C[C@H]1CCCC[C@@H]1n1nc(Nc2ccc(S(=O)(=O)NCc3ccccc3)cc2)c2c(=O)[nH]ccc21 [Example 3-19]" measurementunits=nM experimentalresult=1.2
molecule="C[C@H](N[C@@H]1CC[C@H](n2nc(Nc3ccc(Cl)c(F)c3)c3c(=O)[nH]ccc32)[C@@H](C#N)C1)C1CC1 [Example 5-5]" measurementunits=nM experimentalresult=113
molecule="CC(C)OC(=O)c1ccc2cc(Nc3nn([C@H]4CCCC[C@@H]4C#N)c4cc[nH]c(=O)c34)ccc2n1 [Example 15-16]" measurementunits=nM experimentalresult=3.8
molecule="N#C[C@H]1CCCCC[C@@H]1n1nc(Nc2ccc3c(c2)CN(C2CCOCC2)S3(=O)=O)c2c(=O)[nH]ccc21 (single isomer, unassigned) [Example 15-54]" measurementunits=nM experimentalresult=0.4
molecule="N#C[C@@H]1CCCC[C@H]1n1nc(Nc2cccc(CNC(=O)c3ncccn3)c2)c2c(=O)[nH]ccc21 [Example 3-14]" measurementunits=nM experimentalresult=68

====

# target: JAK2 (Homo sapiens (Human), UniProt O60674)
# runDescription: Jak biochemical HTRF assay, JAK2
# studyConditions: HTRF biochemical assay, recombinant GST-tagged catalytic domain; read-out: JAK2 IC50
quantity: IC50 (nM)

molecule=N#C[C@H]1C[C@H](O)CC[C@@H]1n1nc(Nc2ccc(Cl)cc2)c2c(=O)[nH]ccc21 quantity=IC50 experimentalresult=7.3
molecule="Cc1cc(Nc2nn([C@H]3CCCCC[C@@H]3C#N)c3cc[nH]c(=O)c23)ccc1C(=O)N1CCCC1 (single isomer, unassigned)" quantity=IC50 experimentalresult=14
molecule=N#C[C@H]1CCCC[C@@H]1n1nc(Nc2ccc3c(c2)CN(C(=O)c2cnc(N4CCCCC4)cn2)C3)c2c(=O)[nH]ccc21 quantity=IC50 experimentalresult=1.5
molecule=N#C[C@H]1C[C@H](N2CCC2)CC[C@@H]1n1nc(Nc2ccc(Cl)c(F)c2)c2c(=O)[nH]ccc21 quantity=IC50 experimentalresult=40

Entry source: patent US9725445B2
